Experiment: Cytotoxicity against human HuH7 cells
Type: cell-based, Huh-7
Answer each item with its documented CC50.

Problem: Output measured CC50 for this item: Cc1ccccc1-c1nn(Cc2ccccc2)cc1CNCCN1CCN(C)CC1
Solution: > 20 µM

Problem: Output measured CC50 for this item: Cc1ccccc1-c1nn(-c2ccc(F)cc2F)cc1CNCCN1CCOCC1
Solution: > 20 µM

Problem: Output measured CC50 for this item: Cc1ccccc1-c1nn(-c2ccc(F)cc2F)cc1CNCCN(C)C
Solution: > 20 µM

Problem: Output measured CC50 for this item: Cc1ccccc1-c1nn(-c2ccccc2Cl)cc1CNCCN1CCN(C)CC1
Solution: > 20 µM

Problem: Output measured CC50 for this item: CCCCCNCc1cn(-c2ccc(F)cc2F)nc1-c1ccccc1C
Solution: 17 µM

Problem: Output measured CC50 for this item: COC(=O)c1ccc(-c2nn(-c3ccc(F)cc3F)cc2CNCCN2CCN(C)CC2)cc1
Solution: > 20 µM
